target: human CD33 E154A (human, UniProt P20138 18-364); experiment: flow cytometry on HEK293-T, alanine scan
Sequence (P20138 18-364 E154A limits assumed): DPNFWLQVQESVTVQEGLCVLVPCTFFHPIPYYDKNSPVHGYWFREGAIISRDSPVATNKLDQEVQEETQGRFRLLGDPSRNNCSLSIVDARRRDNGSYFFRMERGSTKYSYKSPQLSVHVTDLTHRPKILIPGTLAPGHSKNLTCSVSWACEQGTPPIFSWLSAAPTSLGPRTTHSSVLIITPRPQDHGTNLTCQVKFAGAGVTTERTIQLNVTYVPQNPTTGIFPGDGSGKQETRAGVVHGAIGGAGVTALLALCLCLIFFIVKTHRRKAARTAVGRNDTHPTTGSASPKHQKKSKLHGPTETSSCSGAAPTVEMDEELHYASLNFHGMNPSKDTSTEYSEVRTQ
measured_property: Mean % WT Binding (% WT binding)
Expressed in % WT binding, but write only the number.

Solved cases below.
{"binder": "Refmab #1 (antibody, V domains shown, The alanine scan used IgG or Fab; also called hP67.6) VH: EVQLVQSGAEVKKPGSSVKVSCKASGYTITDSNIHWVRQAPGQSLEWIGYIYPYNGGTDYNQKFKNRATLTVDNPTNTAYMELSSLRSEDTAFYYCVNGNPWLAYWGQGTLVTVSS VL: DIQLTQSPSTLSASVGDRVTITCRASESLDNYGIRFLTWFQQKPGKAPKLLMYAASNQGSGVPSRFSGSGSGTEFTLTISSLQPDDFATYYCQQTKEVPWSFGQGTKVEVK", "measured_property": "Mean % WT Binding", "u": "% WT binding", "experimental_result": 88}
{"binder": "Refmab #3 (antibody, V domains shown, The alanine scan used IgG or Fab) VH: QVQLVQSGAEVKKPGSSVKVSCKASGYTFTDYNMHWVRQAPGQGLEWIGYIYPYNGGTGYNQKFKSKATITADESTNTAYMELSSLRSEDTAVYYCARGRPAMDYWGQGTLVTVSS VL: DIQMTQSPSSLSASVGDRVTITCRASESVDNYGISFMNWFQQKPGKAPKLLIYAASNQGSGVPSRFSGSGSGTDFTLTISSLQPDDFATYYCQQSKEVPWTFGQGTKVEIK", "measured_property": "Mean % WT Binding", "u": "% WT binding", "experimental_result": 126}
{"binder": "Refmab #2 (antibody, V domains shown, The alanine scan used IgG or Fab) VH: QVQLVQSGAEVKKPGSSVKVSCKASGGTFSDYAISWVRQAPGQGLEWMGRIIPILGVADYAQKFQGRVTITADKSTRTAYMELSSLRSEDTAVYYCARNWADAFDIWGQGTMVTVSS VL: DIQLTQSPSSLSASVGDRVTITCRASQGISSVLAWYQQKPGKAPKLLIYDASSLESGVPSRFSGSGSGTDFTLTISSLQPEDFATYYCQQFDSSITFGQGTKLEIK", "measured_property": "Mean % WT Binding", "u": "% WT binding", "experimental_result": 112}

Then there is this binder:
Mean % WT Binding in this record for Refmab #4 (antibody, V domains shown, The alanine scan used IgG or Fab) VH: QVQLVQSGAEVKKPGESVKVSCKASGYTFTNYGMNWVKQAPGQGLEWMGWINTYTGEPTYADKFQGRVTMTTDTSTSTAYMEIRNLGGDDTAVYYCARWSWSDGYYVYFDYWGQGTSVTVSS VL: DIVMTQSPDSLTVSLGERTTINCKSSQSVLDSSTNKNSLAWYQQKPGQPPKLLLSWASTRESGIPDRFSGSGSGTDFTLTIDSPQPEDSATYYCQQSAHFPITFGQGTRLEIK : 84.4
